Would you kindly list LogP for each of these compounds?
Assay Notes: Log P by HPLC on reversed phase columns (EEC directive 79/831 Annex V.A8)
Format: physicochemical
Condition Set: method marked [a]

See these solved cases before continuing.
[[record]]
compound = "CCOC(=O)CNC(=O)c1cc(Br)c(F)s1"
value_observed = "2.33^[a]"

[[record]]
compound = "C#CCOC(=O)C1(NC(=O)c2sc(C#N)c(Cl)c2Cl)CC1"
value_observed = "2.73^[a]"

[[record]]
compound = "CCOC(=O)C1(NC(=S)c2sc(Cl)c(Cl)c2Br)CC1"
value_observed = "4.51^[a]"

[[record]]
compound = "CCOC(=O)C(Cc1ccccc1)NC(=O)c1sc(Br)c(Br)c1C(F)(F)F (stereo not drawn)"
value_observed = "4.31^[a]"

[[record]]
compound = "CCOC(=O)C(Cc1ccccc1)NC(=O)c1sc(Br)c(C#N)c1Cl (stereo not drawn)"
value_observed = "4.06^[a]"

[[record]]
compound = "COC(=O)C1(NC(=S)c2sc(Br)c(Br)c2Cl)CC1"
value_observed = "4.11^[a]"

[[record]]
compound = "Cc1c(C(=O)NC2(C(=O)OC3CCC3)CCC2)sc(Cl)c1Br"
value_observed = "4.37^[a]"

[[record]]
compound = "CCOC(=O)C(COC)NC(=O)c1sc(Br)c(Br)c1Cl (stereo not drawn)"
value_observed = "3.91^[a]"


// input: 5 compounds below; output: LogP for each
1. CCOC(=O)CN(OC)C(=O)c1sc(Br)c(Br)c1F
2. CCOC(=O)C1(NC(=S)c2sc(Br)c(Br)c2F)CCC1
3. COC(=O)C(CCSC)NC(=O)c1sc(C#N)c(Br)c1C (stereo not drawn)
4. CCOC(=O)C(C)(C)NC(=O)c1sc(Cl)c(Cl)c1C(F)F
5. N#Cc1sc(C(=O)NC2(C(=O)O)CC2)cc1Br

3.37^[a]
4.74^[a]
3.06^[a]
3.55^[a]
1.70^[a]
